- SYSTEM: T1, OX747-157 (human)
- T1 peptide: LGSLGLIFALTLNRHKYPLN
- METHOD: cell-based or functional assay
RECORDED_METRIC: Clone size (percent repertoire), IFNγ+ sorted T cells after peptide stimulation

Below, each entry is followed by its recorded Clone size (percent repertoire), IFNγ+ sorted T cells after peptide stimulation result.
1. OX747 Peptides 157/158 clone 5 TCR (TCR, V domains shown) V domain 1: GQQLNQSPQSMFIQEGEDVSMNCTSSSIFNTWLWYKQDPGEGPVLLIALYKAGELTSNGRLTAQFGITRKDSFLNISASIPSDVGIYFCAGQQKTSGSRLTFGEGTQLTVNP V domain 2: DGGITQSPKYLFRKEGQNVTLSCEQNLNHDAMYWYRQDPGQGLRLIYYSQIVNDFQKGDIAEGYSVSREKKESFPLTVTSAQKNPTAFYLCASSSPRDRVGQPQHFGDGTRLSILE : 7.7 % of repertoire
2. OX747 Peptides 157/158 clone 1 TCR (TCR) TCR alpha 1: KNEVEQSPQNLTAQEGEFITINCSYSVGISALHWLQQHPGGGIVSLFMLSSGKKKHGRLIATINIQEKHSSLHITASHPRDSAVYICAVSTGGATNKLIFGTGTLLAVQPNIQNPDPAVYQLRD TCR alpha 2: KNEVEQSPQNLTAQEGEFITINCSYSVGISALHWLQQHPGGGIVSLFMLSSGKKKHGRLIATINIQEKHSSLHITASHPRDSAVYICAVQEGETSGSRLTFGEGTQLTVNPDIQNPDPAVYQLRD TCR beta: NAGVTQTPKFQVLKTGQSMTLQCAQDMNHEYMSWYRQDPGMGLRLIHYSVGAGITDQGEVPNGYNVSRSTTEDFPLRLLSAAPSQTSVYFCASSPGFNGNTIYFGEGSWLTVVEDLNKVFPPEVAVFEPS : 15.5 % of repertoire

Given the binder OX747 Peptides 157/158 clone 2 TCR (TCR, V domains shown) V domain 1: AQKVTQAQTEISVVEKEDVTLDCVYETRDTTYYLFWYKQPPSGELVFLIRRNSFDEQNEISGRYSWNFQKSTSSFNFTITASQVVDSAVYFCALSEATYNTDKLIFGTGTRLQVFP V domain 2: ETGVTQSPTHLIKTRGQQVTLRCSSQSGHNTVSWYQQALGQGPQFIFQYYREEENGRGNFPPRFSGLQFPNYSSELNVNALELDDSALYLCASSSTGTDYGYTFGSGTRLTVVE , what is its reported Clone size (percent repertoire), IFNγ+ sorted T cells after peptide stimulation?
9.8 % of repertoire

Given the binder OX747 Peptides 157/158 clone 4 TCR (TCR, V domains shown) V domain 1: AQKVTQAQTEISVVEKEDVTLDCVYETRDTTYYLFWYKQPPSGELVFLIRRNSFDEQNEISGRYSWNFQKSTSSFNFTITASQVVDSAVYFCALSEMNRDDKIIFGKGTRLHILP V domain 2: NAGVMQNPRHLVRRRGQEARLRCSPMKGHSHVYWYRQLPEEGLKFMVYLQKENIIDESGMPKERFSAEFPKEGPSILRIQQVVRGDSAAYFCASSPTGVSGNTIYFGEGSWLTVVE , what is its reported Clone size (percent repertoire), IFNγ+ sorted T cells after peptide stimulation?
7.9 % of repertoire
